Quick record of IC50 values for JMJD3 (Homo sapiens, UniProt O15054).

Past entries and their recorded results:
Fc1ccccc1Cn1cnc(-c2cc(-c3nn[nH]c3C(F)(F)F)ccn2)c1 = > 10 µM
Fc1cccc(CCn2cnc(-c3cc(-c4nn[nH]c4C(F)(F)F)ccn3)c2)c1F = > 10 µM
CC(C)(C)c1ccc(CCn2cnc(-c3cc(-c4nn[nH]c4C(F)(F)F)ccn3)c2)cc1 = > 10 µM

# input for lookup
CCC(c1ccccc1)n1cnc(-c2cc(-c3nn[nH]c3C(F)(F)F)ccn2)c1 (stereo not shown) yielded IC50 of > 10 µM

----------
- TARGET OF ASSAY: PHF8 (Homo sapiens)
- Sequence (Q9UPP1 37-1060): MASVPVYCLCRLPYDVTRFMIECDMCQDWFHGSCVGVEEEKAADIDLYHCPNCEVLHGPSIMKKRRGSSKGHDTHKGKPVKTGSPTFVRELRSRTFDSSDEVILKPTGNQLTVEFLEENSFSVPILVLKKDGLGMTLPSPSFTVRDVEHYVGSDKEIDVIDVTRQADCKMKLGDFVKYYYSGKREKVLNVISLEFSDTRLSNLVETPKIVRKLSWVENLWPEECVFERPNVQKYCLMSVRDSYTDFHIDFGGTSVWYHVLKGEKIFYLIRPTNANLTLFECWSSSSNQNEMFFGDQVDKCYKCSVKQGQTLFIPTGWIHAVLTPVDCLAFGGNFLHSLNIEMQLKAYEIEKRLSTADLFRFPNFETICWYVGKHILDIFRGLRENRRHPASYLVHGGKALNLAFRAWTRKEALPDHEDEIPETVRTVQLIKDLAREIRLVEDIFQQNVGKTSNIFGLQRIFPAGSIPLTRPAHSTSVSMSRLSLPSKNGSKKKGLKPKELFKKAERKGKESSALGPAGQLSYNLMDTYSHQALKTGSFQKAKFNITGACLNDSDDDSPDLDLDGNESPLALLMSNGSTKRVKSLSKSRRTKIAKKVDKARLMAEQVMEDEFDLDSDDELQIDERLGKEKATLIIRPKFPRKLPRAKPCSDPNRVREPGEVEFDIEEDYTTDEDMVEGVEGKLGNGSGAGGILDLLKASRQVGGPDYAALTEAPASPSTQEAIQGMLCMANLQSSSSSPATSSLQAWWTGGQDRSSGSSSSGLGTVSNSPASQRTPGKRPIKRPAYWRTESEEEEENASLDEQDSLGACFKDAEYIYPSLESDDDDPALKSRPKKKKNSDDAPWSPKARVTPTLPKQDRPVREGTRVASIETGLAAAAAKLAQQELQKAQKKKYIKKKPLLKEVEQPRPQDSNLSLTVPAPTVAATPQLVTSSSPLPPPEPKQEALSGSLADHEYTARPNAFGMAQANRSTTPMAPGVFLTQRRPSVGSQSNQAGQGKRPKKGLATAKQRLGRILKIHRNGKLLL
pIC50: −log10 of the molar value.
Below: a set of entries, each annotated with reported pIC50.

Clc1ccccc1-n1cnc(-c2cc3[nH]nnc3cn2)c1 = 5.00 to 6.00

"Clc1ccccc1Cn1cnc(-c2cc(-c3cn[nH]n3)ccn2)c1Br" yielded pIC50 of 6.00 to 7.00

"Clc1cccc(Cn2cnc(-c3cc4[nH]nnc4cn3)c2)c1" yielded pIC50 of 5.00 to 6.00

"FC(F)(F)Oc1ccccc1CCn1cnc(-c2cc(-c3c[nH]nn3)ccn2)c1" yielded pIC50 of 6.00 to 7.00

"c1ccc(Cn2cnc(-c3cc4[nH]nnc4cn3)c2)cc1" yielded pIC50 of 6.00 to 7.00

"c1nc(-c2cn(CC3CC3)cn2)cc2[nH]nnc12" yielded pIC50 of 5.00 to 6.00

"Cn1cnc(-c2cc3[nH]nnc3cn2)c1-c1ccc(F)cc1" yielded pIC50 of 5.00 to 6.00

----------
- TARGET OF ASSAY: FBXL10 (Homo sapiens)
- Construct: purchased BPS Bioscience 50120
- ASSAY: FBXL10 in vitro enzyme inhibition assay (AlphaScreen)
- Assay type: biochemical
- DETAILS: Table 3; 0.3 nM FBXL10, H3K36me2-biotin labeled peptide
pIC50: −log10 of the molar value.
Below: a set of entries, each annotated with reported pIC50.

Past entries and their recorded results:
Clc1ccc(Cn2cnc(-c3cc4[nH]nnc4cn3)c2)cc1 = ≥ 7.00
c1ccc(-c2ccccc2CCn2cnc(-c3cc(-c4c[nH]nn4)ccn3)c2)cc1 = 6.00 to 7.00
Fc1c(Cn2cnc(-c3cc(-c4c[nH]nn4)ccn3)c2)cccc1OC(F)(F)F = 6.00 to 7.00

"FC(F)(F)Oc1ccccc1CCn1cnc(-c2cc(-c3c[nH]nn3)ccn2)c1" yielded pIC50 of ≥ 7.00

"Clc1ccccc1Cn1cnc(-c2cc(-c3cn[nH]n3)ccn2)c1Br" yielded pIC50 of ≥ 7.00

"Clc1cccc(Cn2cnc(-c3cc4[nH]nnc4cn3)c2)c1" yielded pIC50 of ≥ 7.00

----------
- TARGET OF ASSAY: FBXL10 (Homo sapiens, UniProt Q8NHM5)
- Construct: purchased BPS Bioscience 50120
- Sequence (Q8NHM5 1-650): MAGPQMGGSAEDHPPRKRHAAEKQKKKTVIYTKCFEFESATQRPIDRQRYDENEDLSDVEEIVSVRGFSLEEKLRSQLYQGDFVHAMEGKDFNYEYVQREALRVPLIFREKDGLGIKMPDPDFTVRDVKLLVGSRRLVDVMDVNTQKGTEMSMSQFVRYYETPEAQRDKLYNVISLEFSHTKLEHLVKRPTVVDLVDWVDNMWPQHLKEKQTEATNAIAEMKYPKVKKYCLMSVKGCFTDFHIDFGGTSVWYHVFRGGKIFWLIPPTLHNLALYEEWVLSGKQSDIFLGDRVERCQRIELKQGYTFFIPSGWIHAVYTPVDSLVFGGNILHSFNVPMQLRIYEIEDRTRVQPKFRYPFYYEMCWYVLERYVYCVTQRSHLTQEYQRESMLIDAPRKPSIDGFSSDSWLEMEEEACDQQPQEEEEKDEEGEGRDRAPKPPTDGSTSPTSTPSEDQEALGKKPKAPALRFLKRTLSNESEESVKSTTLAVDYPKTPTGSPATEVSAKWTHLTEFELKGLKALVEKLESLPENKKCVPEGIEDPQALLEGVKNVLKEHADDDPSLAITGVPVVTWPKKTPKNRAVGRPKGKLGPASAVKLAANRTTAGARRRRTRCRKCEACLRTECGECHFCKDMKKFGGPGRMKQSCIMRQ
- ASSAY: FBXL10 in vitro enzyme inhibition assay (AlphaScreen)
- Assay type: biochemical
- DETAILS: Table 5
ENDPOINT LABEL: IC50

Past entries and their recorded results:
Cc1ccc2c(c1)C(Cn1cnc(-c3cc(-c4nn[nH]c4C(F)(F)F)ccn3)c1)CCC2 (centres unmarked) = 100 to 1000 nM
FC(F)(F)c1ccccc1CCn1cnc(-c2cc(-c3nn[nH]c3C(F)(F)F)ccn2)c1 = 100 to 1000 nM
FC(F)(F)c1[nH]nnc1-c1ccnc(-c2cn(CCc3ccc(Cl)cc3)cn2)c1 = ≤ 100 nM
CC(C)C(c1ccccc1)n1cnc(-c2cc(-c3nn[nH]c3C(F)(F)F)ccn2)c1 (centres unmarked) = 100 to 1000 nM

"CCOc1ccccc1CCn1cnc(-c2cc(-c3nn[nH]c3C(F)(F)F)ccn2)c1" yielded IC50 of 100 to 1000 nM

CCC(c1ccccc1)n1cnc(-c2cc(-c3nn[nH]c3C(F)(F)F)ccn2)c1 (centres unmarked) yielded IC50 of ≤ 100 nM

"FC(F)(F)c1[nH]nnc1-c1ccnc(-c2cn(Cc3ccccc3)cn2)c1" yielded IC50 of ≤ 100 nM

"Fc1cccc(CCn2cnc(-c3cc(-c4nn[nH]c4C(F)(F)F)ccn3)c2)c1" yielded IC50 of ≤ 100 nM

----------
- TARGET OF ASSAY: FBXL10 (Homo sapiens, UniProt Q8NHM5)
- Construct: purchased BPS Bioscience 50120
- ASSAY: FBXL10 in vitro enzyme inhibition assay (AlphaScreen)
- Assay type: biochemical
- DETAILS: Table 5
pIC50: −log10 of the molar value.
Below: a set of entries, each annotated with reported pIC50.

Fc1ccccc1CCn1cnc(-c2cc(-c3nn[nH]c3C(F)(F)F)ccn2)c1 = ≥ 7.00
FC(F)(F)c1[nH]nnc1-c1ccnc(-c2cn(Cc3ccc(Cl)cc3)cn2)c1 = ≥ 7.00

"Cc1ccccc1Cn1cnc(-c2cc(-c3nn[nH]c3C(F)(F)F)ccn2)c1" yielded pIC50 of ≥ 7.00

FC(F)(F)c1[nH]nnc1-c1ccnc(-c2cn(CC3CCOc4ccccc43)cn2)c1 (centres unmarked) yielded pIC50 of ≥ 7.00

Fc1ccc2c(c1)C(n1cnc(-c3cc(-c4nn[nH]c4C(F)(F)F)ccn3)c1)CC2 (centres unmarked) yielded pIC50 of ≥ 7.00

COc1cccc2c1C(Cn1cnc(-c3cc(-c4nn[nH]c4C(F)(F)F)ccn3)c1)CCC2 (centres unmarked) yielded pIC50 of 6.00 to 7.00

"Fc1ccc(F)c(CCn2cnc(-c3cc(-c4nn[nH]c4C(F)(F)F)ccn3)c2)c1" yielded pIC50 of ≥ 7.00

"FC(F)(F)c1ccc(CCn2cnc(-c3cc(-c4nn[nH]c4C(F)(F)F)ccn3)c2)cc1" yielded pIC50 of 6.00 to 7.00

"Fc1cccc(CCn2cnc(-c3cc(-c4nn[nH]c4C(F)(F)F)ccn3)c2)c1F" yielded pIC50 of ≥ 7.00

----------
Target chain: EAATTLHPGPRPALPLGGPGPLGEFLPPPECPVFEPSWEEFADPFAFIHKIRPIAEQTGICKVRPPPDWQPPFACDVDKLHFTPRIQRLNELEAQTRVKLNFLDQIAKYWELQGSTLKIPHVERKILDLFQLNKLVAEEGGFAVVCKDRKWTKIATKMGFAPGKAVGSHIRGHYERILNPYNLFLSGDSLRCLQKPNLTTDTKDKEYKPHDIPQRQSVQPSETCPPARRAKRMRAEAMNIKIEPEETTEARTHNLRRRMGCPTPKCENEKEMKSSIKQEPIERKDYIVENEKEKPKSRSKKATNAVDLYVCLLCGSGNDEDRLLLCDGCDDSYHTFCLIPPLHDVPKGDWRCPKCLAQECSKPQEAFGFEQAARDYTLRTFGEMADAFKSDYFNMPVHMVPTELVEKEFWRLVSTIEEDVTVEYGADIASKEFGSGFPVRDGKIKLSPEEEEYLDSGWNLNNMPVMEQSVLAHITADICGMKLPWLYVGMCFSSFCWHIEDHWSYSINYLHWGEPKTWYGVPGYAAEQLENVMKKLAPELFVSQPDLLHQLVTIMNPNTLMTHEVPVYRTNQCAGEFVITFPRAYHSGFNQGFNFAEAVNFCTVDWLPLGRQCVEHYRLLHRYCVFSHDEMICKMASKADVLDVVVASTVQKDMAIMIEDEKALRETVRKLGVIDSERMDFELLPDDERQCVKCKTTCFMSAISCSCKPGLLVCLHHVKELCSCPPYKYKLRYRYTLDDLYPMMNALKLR
pIC50: −log10 of the molar value.
ENDPOINT LABEL: pIC50

Past entries and their recorded results:
Cc1ccc(Cn2cnc(-c3cc(-c4nn[nH]c4C(F)(F)F)ccn3)c2)cc1 = < 5.00
O=C(c1ccccc1)N1CCC[C@H](n2cnc(-c3cc(-c4nn[nH]c4C(F)(F)F)ccn3)c2)C1 = ≥ 7.00
FC(F)(F)c1[nH]nnc1-c1ccnc(-c2cn(CCc3ccc(Cl)cc3)cn2)c1 = 6.00 to 7.00
CC(c1ccccc1)n1cnc(-c2cc(-c3nn[nH]c3C(F)(F)F)ccn2)c1 (centres unmarked) = 6.00 to 7.00
FC(F)(F)c1[nH]nnc1-c1ccnc(-c2cn(Cc3ccc(Cl)cc3)cn2)c1 = 6.00 to 7.00

"CCOc1ccccc1CCn1cnc(-c2cc(-c3nn[nH]c3C(F)(F)F)ccn2)c1" yielded pIC50 of ≥ 7.00

COc1ccc2c(c1)C(Cn1cnc(-c3cc(-c4nn[nH]c4C(F)(F)F)ccn3)c1)CCC2 (centres unmarked) yielded pIC50 of ≥ 7.00

"FC(F)(F)COc1ccccc1Cn1cnc(-c2cc(-c3nn[nH]c3C(F)(F)F)ccn2)c1" yielded pIC50 of 6.00 to 7.00

----------
- TARGET OF ASSAY: FBXL10 (Homo sapiens, UniProt Q8NHM5)
- Construct: purchased BPS Bioscience 50120
- ASSAY: FBXL10 in vitro enzyme inhibition assay (AlphaScreen)
- Assay type: biochemical
- DETAILS: Table 5
pIC50: −log10 of the molar value.
ENDPOINT LABEL: pIC50

Fc1ccc(CCn2cnc(-c3cc(-c4nn[nH]c4C(F)(F)F)ccn3)c2)c(F)c1 [Example 86] = ≥ 7.00

COc1ccc(CCn2cnc(-c3cc(-c4nn[nH]c4C(F)(F)F)ccn3)c2)cc1 [Example 93] yielded pIC50 of ≥ 7.00

CC(c1ccccc1)n1cnc(-c2cc(-c3nn[nH]c3C(F)(F)F)ccn2)c1 (centres unmarked) [Example 73] yielded pIC50 of ≥ 7.00

Fc1cccc(Cl)c1CCn1cnc(-c2cc(-c3nn[nH]c3C(F)(F)F)ccn2)c1 [Example 80] yielded pIC50 of 6.00 to 7.00

Cc1ccc(Cn2cnc(-c3cc(-c4nn[nH]c4C(F)(F)F)ccn3)c2)cc1 [Example 65] yielded pIC50 of ≥ 7.00

FC(F)(F)COc1ccccc1Cn1cnc(-c2cc(-c3nn[nH]c3C(F)(F)F)ccn2)c1 [Example 76] yielded pIC50 of 6.00 to 7.00

Fc1ccc2c(c1)C(Cn1cnc(-c3cc(-c4nn[nH]c4C(F)(F)F)ccn3)c1)CCC2 (centres unmarked) [Example 101] yielded pIC50 of 6.00 to 7.00

Fc1ccc(Cn2cnc(-c3cc(-c4nn[nH]c4C(F)(F)F)ccn3)c2)cc1 [Example 61] yielded pIC50 of ≥ 7.00
